recorded metric: melting point

According to the records, this molecule `COc1nc(Nc2ccc(C)cc2[N+](=O)[O-])nc(OC)n1` displays melting point of 189 to 191 °C

molecule `O=C1C=c2c(c3c(c4[nH]c5ccccc5c24)Cc2ccccc2-3)=N1` , melting point observed: 275 to 280 °C

Please fill in: melting point reported for `CCOC(=O)C(=NO)c1csc(C)n1` = 90 to 92 °C

// field: melting point; key: `NC(=O)c1cc2cccc(NC(=O)c3cccs3)c2[nH]1` ; value = 289 to 290 °C

molecule `NC(=O)c1cnn(-c2ccc(Cl)cc2Cl)c1C(F)(F)F` , melting point observed: 191 to 193 °C

Value of melting point reported for the molecule `COc1ccc(CN2CC=C(/C=C/c3ccccc3)CC2)cc1` is 144 to 146 °C

So, `CC(=CC(=O)NCc1cccc(CNC(=O)C=C(C)C(=O)O)c1)C(=O)O` ? Its melting point was 148 to 150 °C

Consider `CN1CCC(=C2c3c(ccn3C)CCn3cnnc32)CC1` . Its measured melting point is 214 °C

Value of measured melting point for the entry `CC(C)(C)OC(=O)N1CCN(C(=O)N2CCOCC2)CC1` : 171 to 173 °C
